# Tested on: Solenopsis invicta
# Run description: whole plant or invertebrate
# Assay type: in vivo
# Run parameters: Solenopsis invicta, 24 h, read-out: Solenopsis invicta Mortality (%) 100 ppm 24 h, 100 ppm; 24 h; water test tube poison-feeding

- Molecule: "C=CCN(CC)c1cc2n(n1)-c1cnccc1C(F)(CC(F)(F)F)N2 (centres unmarked)"
  Subject of test: "Solenopsis invicta"
  mortality at 100 ppm / %: 26
- Molecule: "CNC(=O)Nc1cc2n(n1)-c1cnccc1C(F)(CC(F)(F)F)N2 (centres unmarked)"
  Subject of test: "Solenopsis invicta"
  mortality at 100 ppm / %: 24
- Molecule: "C=CC1(C(F)(F)F)Nc2c(Br)c(C#N)nn2-c2c(Cl)cc(C(F)(F)F)cc21 (centres unmarked)"
  Subject of test: "Solenopsis invicta"
  mortality at 100 ppm / %: 38
- Molecule: "CC(=O)N1c2c(Br)c(C#N)nn2-c2ccccc2C1(C)C"
  Subject of test: "Solenopsis invicta"
  mortality at 100 ppm / %: 20
- Molecule: "CC(=O)c1nn2c(c1[S+](C)[O-])NC(CC(N)=O)(C(N)=O)c1cc(C(F)(F)F)cc(Cl)c1-2 (centres unmarked)"
  Subject of test: "Solenopsis invicta"
  mortality at 100 ppm / %: 20
- Molecule: "CNC(=O)C1(CC(=O)OC)Nc2c([S+](C)[O-])c(C(C)=O)nn2-c2c(Cl)cc(C(F)(F)F)cc21 (centres unmarked)"
  Subject of test: "Solenopsis invicta"
  mortality at 100 ppm / %: 21
- Molecule: "C=CC1(CCl)Nc2c([S+](C)[O-])c(C#N)nn2-c2c(Cl)cc(C(F)(F)F)cc21 (centres unmarked)"
  Subject of test: "Solenopsis invicta"
  mortality at 100 ppm / %: 20
- Molecule: "CSc1nn2c(c1C(=O)N(C)C)NC(F)(C(F)(F)F)c1ccccc1-2 (centres unmarked)"
  Subject of test: "Solenopsis invicta"
  mortality at 100 ppm / %: 26

###

# System: Solenopsis invicta
# Run description: whole plant or invertebrate
# Format: in vivo
# Run parameters: 100 ppm; 24 h; water test tube poison-feeding
Measured Solenopsis invicta Mortality (%) 24 h of individual entries
Experimental endpoint: Solenopsis invicta Mortality (%) 24 h

- Molecule: "N#Cc1nn2c(c1[S+]([O-])C(F)(F)F)NC(C(=O)C(F)(F)F)c1cc(C(F)(F)F)cc(Cl)c1-2 (stereo not drawn) [d-81]"
  Subject of test: "Solenopsis invicta"
  Value unit: "%"
  Measurement: 35
- Molecule: "COC(=O)CC1(C(=O)OC)Nc2c([S+]([O-])C(F)(F)F)c(C#N)nn2-c2cc(C(F)(F)F)cc(Cl)c21 (racemic) [c-8]"
  Subject of test: "Solenopsis invicta"
  Value unit: "%"
  Measurement: 20
- Molecule: "CNC(=O)C1Nc2c([S+]([O-])C(F)(F)F)c(C(F)(F)F)nn2-c2c(Cl)cc(C(F)(F)F)cc21 (stereo not drawn) [d-109]"
  Subject of test: "Solenopsis invicta"
  Value unit: "%"
  Measurement: 28
- Molecule: "N#Cc1nn2c(c1[S+]([O-])C(F)(F)F)NC(CCCl)(C(=O)C(F)(F)F)c1c(Cl)cc(C(F)(F)F)cc1-2 (stereo not shown) [c-42]"
  Subject of test: "Solenopsis invicta"
  Value unit: "%"
  Measurement: 20
- Molecule: "COC(=O)CC1(C(=O)OC)Nc2c([S+]([O-])C(F)(F)F)c(CN)nn2-c2c(Cl)cc(C(F)(F)F)cc21 (stereo not drawn) [d-9]"
  Subject of test: "Solenopsis invicta"
  Value unit: "%"
  Measurement: 21
- Molecule: "COC(=O)CC1(C(=O)OC)Nc2c([S+]([O-])C(F)(F)F)c(C#N)nn2-c2cc(OC(F)(F)F)cc(Cl)c21 (stereo not shown) [c-224]"
  Subject of test: "Solenopsis invicta"
  Value unit: "%"
  Measurement: 25
- Molecule: "N#Cc1nn2c(c1[S+]([O-])C(F)(F)F)NC(CC(=O)C(F)(F)F)(C(=O)C(F)(F)F)c1cc(C(F)(F)F)cc(Cl)c1-2 (stereo not drawn) [d-50]"
  Subject of test: "Solenopsis invicta"
  Value unit: "%"
  Measurement: 26
